Molecular target: human KDM4E (Homo sapiens, UniProt B2RXH2)
Assay: KDM4E SPE-MS turnover and kinetic assay (H3 K9(me3) peptide demethylation)
Assay type: biochemical
Conditions: absence of 2OG; KDM4E 0.15 μM, 2OG derivative 330 μM, Fe(II) 50 μM, ARTAQTARK(me3)STGGIA 10.0 μM
Observed Property: KDM4E (%): substrate demethylation with the compound as cosubstrate

Illustrative cases are given below, each with its answer.
>>> value_observed("CCCC(CC(=O)C(=O)O)C(=O)O (stereo not drawn)")
"<1%"
>>> value_observed("CC(CC(=O)O)C(=O)C(=O)O (stereo not drawn)")
"∼10%"
>>> value_observed("O=C(O)C(=O)c1ccc(C(=O)O)c(F)c1")
"< 1%"
>>> value_observed("CC1(C)C(C(=O)O)C1C(=O)C(=O)O (mixture of isomers)")
"< 1%"
>>> value_observed("O=C(O)C(=O)CC(CCCc1ccccc1)C(=O)O (stereo not drawn)")
"<1%"
>>> value_observed("CC(CC(=O)C(=O)O)C(=O)O (stereo not drawn) [Entry 8]")
"< 1%"
>>> value_observed("CCCC(CC(=O)O)C(=O)C(=O)O (stereo not drawn)")
"<1%"
>>> value_observed("O=C(O)CC(CCCc1ccccc1)C(=O)C(=O)O (stereo not drawn)")
"∼2%"

Each of the following entries comes with a recorded value; kindly state KDM4E (%): substrate demethylation with the compound as cosubstrate for each.
1. O=C(O)C(=O)c1ccccc1C(=O)O [C00014]
2. CC1(C)c2ccccc2-c2ccc(CC(CC(=O)O)C(=O)C(=O)O)cc21 (stereo not drawn) [C00015]
3. CC(C)(CC(=O)C(=O)O)C(=O)O
4. O=C(O)C(=O)C1C2C=CC(C2)C1C(=O)O (racemic)

<1%
<1%
<1%
< 1%

---

Target sequence: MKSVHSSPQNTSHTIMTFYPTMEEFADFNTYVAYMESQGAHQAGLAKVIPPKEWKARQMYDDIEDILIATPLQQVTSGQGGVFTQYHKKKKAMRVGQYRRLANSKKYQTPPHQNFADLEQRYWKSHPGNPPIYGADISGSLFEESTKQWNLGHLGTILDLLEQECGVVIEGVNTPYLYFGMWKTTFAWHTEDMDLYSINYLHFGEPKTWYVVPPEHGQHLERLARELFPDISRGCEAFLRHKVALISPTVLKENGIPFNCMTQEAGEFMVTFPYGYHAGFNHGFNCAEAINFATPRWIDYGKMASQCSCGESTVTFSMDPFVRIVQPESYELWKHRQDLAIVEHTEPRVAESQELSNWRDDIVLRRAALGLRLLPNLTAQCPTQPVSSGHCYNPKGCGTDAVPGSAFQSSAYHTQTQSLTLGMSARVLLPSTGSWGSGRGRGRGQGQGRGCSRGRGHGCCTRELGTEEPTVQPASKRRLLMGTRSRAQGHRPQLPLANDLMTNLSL
Observed Property: IC50

Illustrative cases are given below, each with its answer.
>>> value_observed("O=C(O)C(=O)c1ccc(C(=O)O)cc1Br")
"> 50 µM"
>>> value_observed("Cc1cc(C(=O)O)ccc1C(=O)C(=O)O")
"> 50 µM"
>>> value_observed("O=C(O)C(=O)c1ccc(C(=O)O)c(Br)c1")
"> 50 µM"

Each of the following entries comes with a recorded value; kindly state IC50 for each.
1. O=C(O)C(=O)C1(C(=O)O)CC1
2. O=C(O)C(=O)c1ccc(C(=O)O)cc1F
3. O=C(O)C(=O)C1C2C=CC(C2)C1C(=O)O (racemic)
4. O=C(O)C(=O)c1ccc(C(=O)O)s1
5. O=C(O)C(=O)C1CC[C@@H](C(=O)O)C1 (mixture of isomers)
6. O=C(O)C(=O)c1ccc(C(=O)O)c(F)c1

1. > 50 µM
2. > 50 µM
3. > 50 µM
4. > 50 µM
5. 27.9 µM
6. > 50 µM

---

What pIC50 was measured for each of the following?
Target: human JMJD5 (Homo sapiens, UniProt Q8N371)
Construct: made in house; host or cells: Escherichia coli BL21(DE3)
Sequence (Q8N371 whole entry): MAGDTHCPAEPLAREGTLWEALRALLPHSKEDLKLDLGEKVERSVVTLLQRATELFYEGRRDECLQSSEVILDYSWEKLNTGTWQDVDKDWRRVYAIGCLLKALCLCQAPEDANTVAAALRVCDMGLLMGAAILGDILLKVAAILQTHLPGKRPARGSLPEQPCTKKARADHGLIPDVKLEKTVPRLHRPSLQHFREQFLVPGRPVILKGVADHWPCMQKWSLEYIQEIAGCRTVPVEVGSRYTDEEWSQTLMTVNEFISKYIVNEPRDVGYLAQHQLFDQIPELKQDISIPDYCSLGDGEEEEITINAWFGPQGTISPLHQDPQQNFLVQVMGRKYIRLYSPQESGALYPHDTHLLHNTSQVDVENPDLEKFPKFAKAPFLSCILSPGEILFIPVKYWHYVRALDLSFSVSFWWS
Assay: SPE-MS JMJD5 inhibition assay
Type: biochemical
Conditions: IC50 JMJD5, JMJD5 0.15 μM, 2OG 2.0 μM, Fe(II) 2.0 μM, LAA 100 μM, RPS6_128–148 2.0 μM
One number for each entry, as −log10 of the molar value.

>>> value_observed("O=C(O)c1ccc(O)c2ncccc12 [C00029]")
5.59

Alright, here's another compound for you.
// recorded pIC50 for O=C(O)CNC(=O)c1c(O)c2ccccc2n(OCC2CC2)c1=O [C00037, reference compound] : 4.43
